Source: PubChem BioAssay AID720700

- Target or system: 1-phosphatidylinositol 4,5-bisphosphate phosphodiesterase gamma-1 (Homo sapiens) (UniProt P19174)
- Sequence (P19174 whole entry, looked up): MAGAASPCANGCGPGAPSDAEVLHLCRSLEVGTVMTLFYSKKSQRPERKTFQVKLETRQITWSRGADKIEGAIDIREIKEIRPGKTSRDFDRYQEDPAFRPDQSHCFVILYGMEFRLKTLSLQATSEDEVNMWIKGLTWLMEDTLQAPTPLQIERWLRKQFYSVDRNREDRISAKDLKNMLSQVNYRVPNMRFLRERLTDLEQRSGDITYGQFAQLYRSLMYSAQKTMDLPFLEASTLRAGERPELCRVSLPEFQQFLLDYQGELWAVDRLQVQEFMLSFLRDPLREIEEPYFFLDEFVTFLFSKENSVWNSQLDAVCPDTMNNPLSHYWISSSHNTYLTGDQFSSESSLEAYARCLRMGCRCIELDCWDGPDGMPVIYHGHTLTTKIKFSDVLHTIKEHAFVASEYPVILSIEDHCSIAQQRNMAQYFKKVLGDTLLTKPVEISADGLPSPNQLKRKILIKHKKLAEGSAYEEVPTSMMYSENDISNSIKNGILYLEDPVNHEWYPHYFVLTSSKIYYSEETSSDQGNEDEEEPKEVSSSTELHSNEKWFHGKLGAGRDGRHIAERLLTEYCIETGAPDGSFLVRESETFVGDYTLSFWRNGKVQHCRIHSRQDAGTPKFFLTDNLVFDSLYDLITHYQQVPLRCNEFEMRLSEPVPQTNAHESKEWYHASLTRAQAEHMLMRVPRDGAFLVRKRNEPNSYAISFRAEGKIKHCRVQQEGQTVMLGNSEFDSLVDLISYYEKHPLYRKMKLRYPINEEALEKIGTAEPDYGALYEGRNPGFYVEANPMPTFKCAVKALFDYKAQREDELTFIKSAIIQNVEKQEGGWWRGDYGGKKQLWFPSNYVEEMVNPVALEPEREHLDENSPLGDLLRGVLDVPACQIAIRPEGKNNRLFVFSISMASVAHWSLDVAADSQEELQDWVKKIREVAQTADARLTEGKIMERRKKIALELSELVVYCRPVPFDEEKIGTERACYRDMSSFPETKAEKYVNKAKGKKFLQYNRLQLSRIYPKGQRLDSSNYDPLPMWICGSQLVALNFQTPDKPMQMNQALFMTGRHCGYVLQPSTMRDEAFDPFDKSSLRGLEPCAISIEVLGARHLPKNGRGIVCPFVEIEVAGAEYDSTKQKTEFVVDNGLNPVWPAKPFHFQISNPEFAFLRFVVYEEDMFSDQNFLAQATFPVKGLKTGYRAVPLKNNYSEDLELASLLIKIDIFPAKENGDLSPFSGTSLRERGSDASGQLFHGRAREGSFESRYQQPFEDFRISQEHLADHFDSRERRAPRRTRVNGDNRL
- Assay notes: PLC-gamma1 enzyme inhibitors, primary screen, biochemical, fluorescence, purified enzyme (AID 720700)
- Test parameters: purified PLC-gamma1, fluorogenic substrate, at 12.2 µM, active compounds read high
The campaign covered roughly 370,000 compounds. About 3,100 (0.84%) were called active. The sample holds actives, similar compounds and a random draw of the others, so the mix is not that of the screen.
Please respond with reported inhibition for every item in the list.
Unit % implied. Number only.

# input # inhibition lookup, item CC(N=Cc1nc(-c2ccccc2)oc1O)c1ccccc1 (stereo not given)
# output 14.1

# input I would be grateful if you could share the reported inhibition for "C=CCN1C(=O)[C@@H](CC(=O)NCCCCc2ccccc2)[C@]2(C(=O)OCC)CCCCC/C=C/12" .
# output -0.06

# input Need inhibition of "Oc1oc(-c2ccccc2Br)nc1/C=N/c1ccccn1" , thanks.
# output -17.6

# input Which inhibition is reported for this compound? O=C1CC(c2ccc3c(c2)OCO3)N=C2N(CC3CC3)C/C(=C/c3ccccc3)N12 (stereo not given)
# output -5.26

# input Find the recorded inhibition belonging to "COC(=O)[C@@]12CCCCC=C1N(CCc1ccc(Cl)cc1)C(=O)[C@H]2CC(=O)NCc1ccc(OC)c(OC)c1" and report it.
# output 2.08

---

Record form. Attribute: inhibition. Fill in for each entry.
- Target or system: 1-phosphatidylinositol 4,5-bisphosphate phosphodiesterase gamma-1 (Homo sapiens)
- Assay notes: PLC-gamma1 enzyme inhibitors, primary screen, biochemical, fluorescence, purified enzyme (AID 720700)
- Test parameters: purified PLC-gamma1, fluorogenic substrate, at 12.2 µM, active compounds read high
The whole screen tested about 370,000 compounds, of which about 3,100 (0.84%) were called active. The sample as a whole holds a higher share of actives than the screen did.
Write the value in % as a bare number.

# input Which inhibition is reported for this compound? "O=C1N[C@@H](c2ccccc2)COC(=O)[C@H](Cc2ccc(F)cc2)C/C=C\C[C@@H]1CC(=O)N(CCO)Cc1ccccc1"
# output 9.59

# input Need inhibition of COc1ccc(C2Nc3ccccc3C(=O)N2Cc2cccs2)cc1COc1c(C)cccc1C (stereo not drawn) , thanks.
# output -106

# input Quick one: inhibition of "COc1ccc(CSc2nnc(-c3cccc(C)c3)n2C)cc1" ?
# output 1

# input Suppose we examine the compound "C=CCNc1nc(N)c([N+](=O)[O-])c(NC2CCCCC2)n1" ; what inhibition value has been reported?
# output 4.77

# input Requested read-out: inhibition. Entry: "O=S1(=O)c2c(cccc2N2CC[C@H](O)C2)O[C@@H]2CCN1C2"
# output -2.5

# input Using the record for "O=C1N[C@H](Cc2c[nH]c3ccccc23)COC(=O)[C@H](Cc2ccc(F)cc2)C/C=C\C[C@H]1CC(=O)N(CCO)Cc1ccccc1" , report its inhibition.
# output 1.6

# input Form field: reported inhibition of "O=C1[C@H]2[C@@H](c3ccc(Cl)cc3)N3C(=O)N(c4cccc(F)c4)C(=O)[C@@]3(Cc3ccccc3)[C@H]2C(=O)N1C1CCCCC1"
# output -2.34

# input Entry under review: "COc1ccc(-n2c(SCC(=O)Nc3ccccc3-c3ccccc3)nnc2-c2cccnc2)cc1" . Reported inhibition?
# output -0.54

# input Please give the measured inhibition for this compound: "Cc1ccc(-n2c(SCC(=O)Nc3ccc(S(=O)(=O)Nc4nccs4)cc3)nnc2-c2ccncc2)cc1"
# output -4.02

# input inhibition for "Cc1cccc([C@@H]2[C@@H]3C(=O)N(Cc4ccccc4)C(=O)[C@@H]3[C@]3(Cc4ccc(Cl)cc4)C(=O)N(c4cccc(Cl)c4)C(=O)N23)c1" ?
# output 11.3

# input Consider the compound shown here: COc1cc(NC(=O)C2CCCN(S(=O)(=O)c3ccc(C(C)(C)C)cc3)C2)cc(OC)c1 (stereo not drawn) What is its recorded inhibition?
# output 0.39

# input Look up inhibition for this compound: "Cc1ccc(C2=CCN(C)C(=O)N2c2ccc(Cl)cc2)cc1"
# output -0.42

# input Report inhibition for "CCC[C@H]1C(=O)CC[C@@]23CCCN2C(=O)CCC[C@@H]13" please.
# output -1.51

# input Which measured inhibition value corresponds to "C[C@H]1[C@H](NC(=O)c2cccc(N(C)C)c2)CC[C@@]23CCCN2C(=O)CCC[C@@H]13" ?
# output -87.5

# input Param item = "COc1ccc(CN2C/C(=C/c3ccccc3)N3C(=O)C[C@@H](c4ccccc4)N=C23)c(OC)c1" ; retrieve measured inhibition.
# output -7.12

# input Need inhibition of "Cc1ccc(S(=O)(=O)Cn2nnnc2CN2CCN(Cc3ccc4c(c3)OCO4)CC2)cc1" , thanks.
# output 10.9

# input Would you kindly share the measured inhibition for Cc1ccccc1CN1CCCCC(NC(=O)Nc2ccccc2F)C1=O (stereo not drawn) ?
# output 4.92

# input Can you look up the measured inhibition of "O=C(CSc1nc2sc3c(c2c(=O)n1-c1ccccc1)CCCC3)NN=Cc1ccc(OCc2ccccc2)cc1" for me?
# output -0.49
